Biological target: EGFR (Homo sapiens)
Construct: host or cells: A431
Assay: EGFR in-cell Western (ICW) screening protocol (EGFR inhibition assay)
Type: cell-based
Parameters: unit not given here
Settings: ICW assay, run 2
Where a name gives a salt, the structure may show the parent alone.
Please respond with reported ICW 2 for every item in the list.

| molecule | ICW 2 |
| --- | --- |
| Cc1ccc2c(C)nc(Nc3nc(-c4ccccc4)cc(=O)[nH]3)nc2c1 [10381 + TFA] | 78.48 |
| Cc1ccc2[nH]c(Nc3nc(C)cc(-c4ccccc4)n3)nc(=O)c2c1 | 50.82 |
| Cc1nc(Nc2nc(=O)cc(CSc3ccc(Cl)cc3)[nH]2)nc2ccccc12 [11445 + TFA] | 61.02 |
| Cc1ccc2nc(Nc3nc(CSc4nnc(C)s4)cc(=O)[nH]3)nc(C)c2c1 | 48.02 |
| COc1cccc2c(C)nc(Nc3nc(C)c(C)c(=O)[nH]3)nc12 [12723 + TFA] | 65.91 |

# map each molecule to its ICW 2
1. COc1ccc(C2CC(=O)c3cnc(Nc4nc(-c5ccccc5)c5ccccc5n4)nc3C2)cc1 (centres unmarked) [11663 + TFA]
2. COc1ccc2nc(Nc3nc(CSc4ccc(C)cc4)cc(=O)[nH]3)nc(C)c2c1
3. FC(F)(F)c1cc(C(F)(F)F)nc(Nc2nc(-c3ccccc3)c3cc(Cl)ccc3n2)n1
4. Cc1ccc2nc(Nc3nc(-c4ccccc4C)cc(=O)[nH]3)nc(C)c2c1 [11785 + TFA]
5. Cc1nc(Nc2nc(=O)cc(CSc3ccc(Cl)cc3)[nH]2)nc2ccccc12 [11583 + TFA]
6. Cc1ccc2c(C)nc(Nc3nc(-c4ccccc4C)cc(=O)[nH]3)nc2c1
7. Cc1ccc2nc(Nc3nc(=O)c(Cc4ccccc4)c(C)[nH]3)nc(C)c2c1

Result:
1. 21.73
2. 30.66
3. 26.22
4. 30.01
5. 54.26
6. 87.95
7. 37.13

Value sought for every listed molecule: ICW 2.
1. Cc1ccc2nc(Nc3nc(=O)cc(CSc4ccc(Cl)cc4)[nH]3)nc(C)c2c1 [11826 + TFA]
2. Cc1ccc2nc(Nc3nc(CSc4nc5ccccc5s4)cc(=O)[nH]3)nc(C)c2c1
3. CCc1ccc2nc(Nc3ncc4c(n3)CC(c3cccc(Cl)c3)CC4=O)nc(C)c2c1 (centres unmarked) [11680 + TFA]
4. Cc1ccc2nc(Nc3nc(C)cc(-c4ccccc4)n3)nc(C)c2c1 [12689 + TFA]
5. Cc1cc(C)nc(Nc2nc(-c3ccccc3)c3cc(Cl)ccc3n2)n1

Result:
1: 33.80; 2: 33.91; 3: 21.89; 4: 17.08; 5: 53.57

====

Assign ICW Screen (ICW Inhibition) to each entry below.
Target: EGFR (Homo sapiens, UniProt P00533)
Construct: host or cells: A431
Sequence (P00533 25-1210): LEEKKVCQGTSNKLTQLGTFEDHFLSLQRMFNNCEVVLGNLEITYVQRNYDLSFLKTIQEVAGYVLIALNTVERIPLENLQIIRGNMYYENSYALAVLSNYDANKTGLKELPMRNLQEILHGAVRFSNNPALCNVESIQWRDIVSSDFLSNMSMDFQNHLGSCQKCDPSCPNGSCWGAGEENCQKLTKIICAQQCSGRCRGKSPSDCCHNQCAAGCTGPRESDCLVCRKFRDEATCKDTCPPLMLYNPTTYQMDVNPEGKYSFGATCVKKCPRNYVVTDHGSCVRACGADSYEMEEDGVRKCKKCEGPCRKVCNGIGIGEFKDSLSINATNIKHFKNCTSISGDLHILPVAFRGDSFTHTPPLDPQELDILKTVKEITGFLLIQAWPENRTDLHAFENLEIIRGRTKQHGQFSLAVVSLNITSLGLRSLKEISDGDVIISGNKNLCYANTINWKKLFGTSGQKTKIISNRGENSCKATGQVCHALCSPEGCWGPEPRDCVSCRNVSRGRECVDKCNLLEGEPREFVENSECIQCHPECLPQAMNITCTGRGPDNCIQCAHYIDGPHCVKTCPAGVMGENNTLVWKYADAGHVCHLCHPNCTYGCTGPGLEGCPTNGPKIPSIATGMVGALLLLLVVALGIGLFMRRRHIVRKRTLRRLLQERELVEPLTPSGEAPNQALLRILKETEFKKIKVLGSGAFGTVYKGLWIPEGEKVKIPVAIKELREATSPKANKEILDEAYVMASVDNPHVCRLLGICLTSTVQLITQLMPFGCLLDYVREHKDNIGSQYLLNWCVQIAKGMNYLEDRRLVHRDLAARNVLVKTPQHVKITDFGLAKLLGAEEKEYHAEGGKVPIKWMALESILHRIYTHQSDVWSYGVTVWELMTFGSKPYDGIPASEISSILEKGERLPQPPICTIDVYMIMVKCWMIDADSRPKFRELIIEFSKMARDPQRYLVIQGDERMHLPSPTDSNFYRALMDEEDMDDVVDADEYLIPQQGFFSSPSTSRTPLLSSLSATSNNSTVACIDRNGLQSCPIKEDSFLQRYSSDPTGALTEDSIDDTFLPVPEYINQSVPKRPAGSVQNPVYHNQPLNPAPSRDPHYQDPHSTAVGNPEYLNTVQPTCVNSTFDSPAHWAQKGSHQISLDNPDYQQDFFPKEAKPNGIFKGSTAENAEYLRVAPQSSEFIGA
Experiment: EGFR in-cell Western (ICW) screening protocol (EGFR inhibition assay);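 on ICW Screen (ICW Inhibition): compound at 125 µM in assay in A431 cells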
Format: cell-based
One number for each entry.

Example entries begin here.
| molecule | val |
| --- | --- |
| O=C(NC(=S)Nc1ccc(S(=O)(=O)Nc2ccccc2)cc1)C1CC1 [AD4-12098] | 25.946 |
| COc1ccc(NS(=O)(=O)c2ccc(NC(=S)NC(=O)/C=C/c3ccccc3)cc2)nn1 | 26.355 |
| CN1CCN(S(=O)(=O)c2ccc(NC(=S)NC(=O)/C=C/c3ccccc3Cl)cc2)CC1 | 28.33 |

Could you tell me ICW Screen (ICW Inhibition) for each of these molecules? They are listed below.
1. CN1CCN(S(=O)(=O)c2ccc(NC(=S)NC(=O)CCc3ccccc3)cc2)CC1
2. COc1ccc(OCC(=O)NC(=S)Nc2ccc(S(=O)(=O)Nc3cc(C)cc(C)c3)cc2)cc1 [AD4-12165]
3. COc1ccc(NS(=O)(=O)c2ccc(NC(=S)NC(=O)CC(C)C)cc2)cc1
4. CN1CCN(S(=O)(=O)c2ccc(NC(=S)NC(=O)/C=C/c3ccccc3)cc2)CC1

Result:
1: 28.422; 2: 36.632; 3: 47.822; 4: 30.469

Q: # input molecule: "Cc1ccc(NS(=O)(=O)c2ccc(NC(=S)NC(=O)C(C)C)cc2)c(C)c1" ; wanted: its ICW Screen (ICW Inhibition)
Result: 34.268
